The following molecules are listed with their measured AC50 values.
Molecular target: Alpha-2C adrenergic receptor (Homo sapiens); also: assay procedure not described here
Sequence (P18825 whole entry): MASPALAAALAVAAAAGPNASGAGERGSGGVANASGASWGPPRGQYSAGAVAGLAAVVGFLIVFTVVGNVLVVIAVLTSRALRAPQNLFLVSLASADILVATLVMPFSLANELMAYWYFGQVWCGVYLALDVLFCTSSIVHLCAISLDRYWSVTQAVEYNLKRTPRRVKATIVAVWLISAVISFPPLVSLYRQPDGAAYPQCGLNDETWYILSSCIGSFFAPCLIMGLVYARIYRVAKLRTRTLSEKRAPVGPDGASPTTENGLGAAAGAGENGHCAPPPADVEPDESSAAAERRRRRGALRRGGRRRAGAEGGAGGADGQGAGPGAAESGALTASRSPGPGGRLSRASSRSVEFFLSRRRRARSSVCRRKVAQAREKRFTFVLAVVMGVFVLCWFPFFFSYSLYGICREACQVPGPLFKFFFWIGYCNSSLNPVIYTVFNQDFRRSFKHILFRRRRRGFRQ
Type: functional
MEASURED METRIC: AC50

# MOLECULE, MEASURED METRIC, OBSERVED RESULT
data = [
    ("CC[C@H]1OC(=O)[C@H](C)[C@@H](O[C@H]2C[C@@](C)(OC)[C@@H](O)[C@H](C)O2)[C@H](C)[C@@H](O[C@@H]2O[C@H](C)C[C@H](N(C)C)[C@H]2O)[C@](C)(O)C[C@@H](C)/C(=N\\OCOCCOC)[C@H](C)[C@@H](O)[C@]1(C)O", "AC50", "> 30 µM"),
    ("C[C@@H]1CCC[C@H](C)N1NC(=O)c1ccc(Cl)c(S(N)(=O)=O)c1 [CLOPAMIDE]", "AC50", "> 30 µM"),
    ("Oc1c(I)cc(Cl)c2cccnc12", "AC50", "> 30 µM"),
    ("O=C(O)CSCC(=O)NC1CCSC1=O (configuration not stated)", "AC50", "> 30 µM"),
    ("CC1(C)O[C@@H]2[C@@H](CO[C@@]3(COS(N)(=O)=O)OC(C)(C)O[C@@H]23)O1 [TOPIRAMATE]", "AC50", "> 10 µM"),
    ("CC[C@H]1OC(=O)[C@H](C)[C@@H](O[C@H]2C[C@@](C)(OC)[C@@H](O)[C@H](C)O2)[C@H](C)[C@@H](O[C@@H]2O[C@H](C)C[C@H](N(C)C)[C@H]2O)[C@](C)(OC)C[C@@H](C)C(=O)[C@H](C)[C@@H](O)[C@]1(C)O", "AC50", "> 30 µM"),
    ("Cc1cnc(NC(=O)C2=C(O)c3ccccc3S(=O)(=O)N2C)s1", "AC50", "> 10 µM"),
    ("CCOc1cc(CC(=O)N[C@@H](CC(C)C)c2ccccc2N2CCCCC2)ccc1C(=O)O [REPAGLINIDE]", "AC50", "> 30 µM"),
    ("CCC(=O)O[C@@H](O[P@](=O)(CCCCc1ccccc1)CC(=O)N1C[C@H](C2CCCCC2)C[C@H]1C(=O)O)C(C)C", "AC50", "> 30 µM"),
    ("Cc1ccc(=O)n(-c2ccccc2)c1", "AC50", "> 30 µM"),
    ("C[C@H]1C[C@H]2[C@@H]3CCC4=CC(=O)C=C[C@]4(C)[C@@]3(Cl)[C@@H](O)C[C@]2(C)[C@@]1(O)C(=O)CO", "AC50", "> 10 µM"),
    ("CO[C@@]1(NC(=O)Cc2cccs2)C(=O)N2C(C(=O)O)=C(COC(N)=O)CS[C@@H]21", "AC50", "> 30 µM"),
]
